// provenance: PubChem BioAssay (NCI)

- Tested on: UO-31 renal
- assay-notes: NCI-60 one-dose screen, 48 h (100 = growth as untreated, 0 = no growth, -100 = all killed)
- condition-set: 10 µM unless noted
This is part of a sample that, as a whole, favours compounds with a hit. Of some 83,000 tested, about 20% had one in any assay.
Label True when growth >= 60%; otherwise False.

Previously resolved entries follow.
COc1ccc(-c2c(-c3ccc(OC)c(O)c3)cnc3ncnn23)cc1 | True
O=c1oc2ccc(-c3ccc(F)cc3F)cc2c(=O)n1-c1cccc(C(F)(F)F)c1 | False
FC(F)(F)c1cccc(CNC2CCN(CCc3ccccc3)CC2)c1 | False
O=c1oc2ccc(F)cc2c(=O)n1-c1ccc(Br)cc1F | False
Cc1c(-c2csc(-n3nc(C(F)(F)F)cc3C(F)(F)F)n2)no[n+]1[O-] | True
COc1ccc(CCN2C(=O)/C(=C/c3ccc(C4Oc5ccccc5C5CC(c6cccc(OC)c6)=NN54)cc3)SC2=S)cc1 (stereo not given) | True
CCOC(=O)c1c2c(c(C)n1Cc1ccc(OC)cc1)-c1oncc1CC2 | True
O=C(c1ccccc1)N(CCc1ccc(Cl)cc1)C(=S)N(C(=O)c1ccccc1)c1ccccc1 | True
O=C1C(=O)c2c(ccc3ccccc23)-c2ccccc21 | False

Would you kindly look at the next entry?
Would you say NCCOc1ncccc1/C=C1\c2ccccc2-c2ccc(F)cc21 shows growth at minimum 60%?
False

---

- Tested on: HS 578T breast
- assay-notes: NCI-60 one-dose screen, 48 h
- condition-set: 10 µM unless noted
About 83,000 compounds went through this panel and 20% of them were active in at least one assay; those are over-represented in the sample as a whole. Active and inactive are the calls of the source. The calls were made as follows: active = growth percent below 10; inactive = the rest.
Allowed answers: y (active), n (inactive)

Take a look at these entries with their results.
O=C(Nc1ccc(Cl)cc1F)c1cc(Br)ccc1O | y
Cc1ccc(S(=O)(=O)c2c(COC(=O)c3cccc(C)c3)c(-c3ccccc3)nn2C)cc1 | n
O=c1oc2ccc(I)cc2c(=O)n1-c1ccc(Cl)cc1F | y
Cn1cc([C@@H]2Nc3ccc4[nH]ncc4c3[C@H]3[C@H]4CCC(C4)[C@H]32)c(C(F)(F)F)n1 | n
COc1ccccc1C1=C(Br)C(=O)c2nc(C)ccc2C1=O | n
COc1ccc(/C=C2/SC(=O)N(CC(=O)N3CCN(c4cc5c(cc4F)c(=O)c(C(=O)O)cn5C4CC4)CC3)C2=O)cc1 | n
O=S1(=O)N(Cc2ccccc2)[C@@H](Cc2ccccc2)C2O[C@H]2[C@H](Cc2ccccc2)N1Cc1ccccc1 (stereo not given in full) | n
C1CCN(c2nc(N3CCCCC3)nc(N3CCOCC3)n2)CC1 | n

What is the recorded call for this molecule in the test? CCN1C(=O)N(c2ccccc2)C2Nn3c(s/c(=C4\C(=O)N(C(C)C)c5ccccc54)c3=O)=NC21 (stereo not given)
n

Entry CCOc1ccc2c(c1)CN(Cc1ccc(Cl)cc1)CO2 : call = ?
y

---

- Tested on: SR leukemia
- assay-notes: NCI-60 one-dose screen, 48 h (100 = growth as untreated, 0 = no growth, -100 = all killed)
- condition-set: 10 µM unless noted
- Procedure: Growth inhibition of the SR human tumor cell line is measured as a screen for anti-cancer activity. Cells are grown in 96 well plates and exposed to the test compound for 48 hours. Compounds are tested at a single concentration, which is 10^-5 M for most compounds. The reported endpoint is percent growth (GI% or GIPRCNT), where numbers from 0 - 100% represent growth inhibition, and numbers from -100% - 0 represent cell death. For example, a value of 40 represents 60% growth inhibition. […]
The panel holds about 83,000 compounds, 20% with a hit somewhere; the sample as a whole holds those more often.
reported-metric: growth (%)
One number for each entry, in %.

CN(C)c1ccc(N=Cc2ccc(N3CCOCC3)cc2)cc1 | 75.6
COc1ccc(CN2CCCC(C(=O)c3ccc(C(F)(F)F)cc3)C2)c(O)c1 (centres undefined) | 3.77
O=c1cc(-c2ccccc2)oc2cc(OCc3cn(Cc4ccc(F)cc4)nn3)cc(OCc3cn(Cc4ccc(F)cc4)nn3)c12 | 32.7
CCOC(=O)c1c2c(n3cccc(Cl)c13)C(=O)c1ncccc1C2=O | 58.3
COc1ccc(C2C3=C(COC3=O)N(CCO)c3cc4c(cc32)CCC4)cc1OC (centres undefined) | 25

Could you tell me growth for each of these molecules? They are listed below.
1. COc1ccc(C2=NN(/C=C3\SC(=O)NC3=Nc3ccc(F)cc3)C(c3ccc(F)cc3)C2)cc1 (centres undefined)
2. CCN1C(=O)N(CC)C2Nn3c(s/c(=C\c4ccccc4F)c3=O)=NC21 (centres undefined)
3. COc1cc(/C=C/C(=O)c2ccc(Cl)cc2)cc(CN2CCCCC2)c1O
4. O=C(CSc1nc2ccccc2c(=O)n1-c1ccccc1)Nc1ccc(C(=O)/C=C/c2ccc(Cl)cc2)cc1

[106, 24.5, 34, 85.3]

---

Would you mind telling me the reported growth of each entry?
- Test system: MDA-MB-435 melanoma
- assay-notes: NCI-60 one-dose screen, 48 h (100 = growth as untreated, 0 = no growth, -100 = all killed)
- condition-set: 10 µM unless noted
Compounds without any hit were thinned out: in the full panel of roughly 83,000, 20% have a hit.
Numbers only, in %.

Before answering, review these 5 worked examples.
S=C1NC2(c3ccccc3)CCC(=S)N2c2ccccc21 (stereo unspecified) | 101
COc1ccccc1C(=O)/C=C/c1ccccc1 | 78.4
O=C(O)c1cn(C2CC2)c2cc(N3CCN(C(=O)C[n+]4ccccc4)CC3)c(F)cc2c1=O | 99.9
O=[N+]([O-])c1cc2c(ccc3occc32)o1 | -75.1
COC(=O)/C(CCC=C(C)C)=C1\[C@@H](OC(C)=O)C[C@@]2(C)[C@H]1C[C@@H](O)[C@H]1[C@@]3(C)CC[C@H](NCCO)[C@@H](C)[C@@H]3CC[C@@]12C | 98.9

Continue with the molecule presented below.
Record Nc1nc(-c2cnccn2)nn1-c1nc2ccccc2s1 , field growth: 103

---

Would you mind telling me the reported growth of each entry?
- System: 786-0 renal
- assay-notes: NCI-60 one-dose screen, 48 h (100 = growth as untreated, 0 = no growth, -100 = all killed)
- condition-set: 10 µM unless noted
The panel holds about 83,000 compounds, 20% with a hit somewhere; the sample as a whole holds those more often.
Answers are plain numbers, in %.

Would you please look over these solved cases?
CC1(C)CC2(C)OC2C2(C1)N=NC(=Nc1ccccc1)O2 (stereo not given) | 36.3
CC(C)CCOc1ccc(-c2n[nH]c(C(F)(F)F)c2-c2cncc(C#N)c2)c(O)c1 | 17.1
COc1ccc(/C=C2\SC(=Nc3ccccc3)NC2=O)cc1 | -92.8
O=NN(C(=O)NC1CCC(C(=O)O)CC1)C1CCC(C(=O)O)CC1 (stereo not given) | 107
O=C(c1nc2ccccc2[nH]1)C1C(c2ccc([N+](=O)[O-])cc2)C2CC3CCCCC3N2[C@@]12C(=O)Nc1cc(Cl)ccc12 (stereo not given in full) | 38.5
COc1ccc(Cn2c(Br)c3c(c2-c2cc(OC)c(OC)c(OC)c2)CCc2sc(NC(C)=O)nc2-3)cc1 | 54.1
COC(=O)/C(CCC=C(C)C)=C1\[C@@H](OC(C)=O)C[C@@]2(C)[C@H]1CC(=O)[C@H]1[C@@]3(C)CC[C@H](NCc4ccccc4)[C@@H](C)[C@@H]3CC[C@@]12C | 65.9
CN1C(=O)N(C)C2(c3ccccc3)OC(=S)NC12c1ccccc1 (stereo not given) | 96.2

Fill in growth for each of the 5 compounds listed.
1. CCN(CC)c1cc(C)c2cc(NC(=O)c3cccc(OC)c3)ccc2n1
2. CN1CCN(Cc2ccc(NC(=O)c3cncc(C#Cc4nc(N)nc5[nH]ncc45)c3)cc2C(F)(F)F)CC1
3. NCCOc1ncccc1/C=C1\c2ccccc2-c2ccc([N+](=O)[O-])cc21
4. O=c1[nH]nnc2c1ncn2C1OC(CO)C(O)C1O (stereo not given)
5. Cc1cc(Nc2ccc(OCc3ccccc3)cc2)nc2cc(O)ccc12

1. 70
2. 111
3. -85.8
4. 54.4
5. 72.2

Would you mind giving growth for every compound in the list below?
1. O=c1oc2ccc(Br)cc2c(=O)n1-c1ccc(Br)cc1F
2. COc1ccc(C2=C(c3cccc(OC)c3)C(=O)c3ccc(C)nc3C2=O)cc1
3. OC(c1ccccc1)c1nnc(SCc2ccccc2)n1Cc1ccccc1 (stereo not given)
4. COc1cc(C2C3=C(COC3=O)N(CCO)c3cc4c(cc32)OCCO4)cc(OC)c1O (stereo not given)
5. COc1ccccc1C(=O)O/N=C(\N)Cc1cccc2ccccc12
6. O=C(Nc1ccc(F)cc1F)c1cc(Cl)ccc1O
7. COc1ccccc1N1CCN(C(CNS(=O)(=O)c2ccc(Cl)cc2)c2cccnc2)CC1 (stereo not given)

[1.72, 67.8, 95.4, 19.8, 106, 2.83, 42.4]
